# Tested on: Candida albicans
# assay.explanation: Synergistic antifungal activity against fluconazole-resistant Candida albicans 632 assessed as inhibition of fungal growth in presence of fluconazole by checker board microdilution assay
# Type: functional
Listing of entries alongside the reported MIC80.
observation.type: MIC80

>>> value_observed("CCN(CC)C(=O)c1noc(-c2cc(-c3ccc(C)cc3)c(O)cc2O)c1-c1ccc(CN2CCOCC2)cc1")
"8 µg/mL"
>>> value_observed("CCNC(=O)c1noc(-c2cc(-c3ccc(C)cc3)c(O)cc2O)c1-c1ccc(CN2CCSCC2)cc1")
"0.5 µg/mL"
>>> value_observed("CCNC(=O)c1noc(-c2cc(-c3ccc(C)cc3)c(O)cc2O)c1-c1ccc(CN2CCCCC2)cc1")
"0.5 µg/mL"

Measured values drawn from ChEMBL document CHEMBL5154804 for this set.
